- ASSAY SYSTEM: DDB1ΔB-DCAF15biotin (Homo sapiens, UniProt Q66K64)
- Sequence (Q66K64 whole entry, stated change not applied): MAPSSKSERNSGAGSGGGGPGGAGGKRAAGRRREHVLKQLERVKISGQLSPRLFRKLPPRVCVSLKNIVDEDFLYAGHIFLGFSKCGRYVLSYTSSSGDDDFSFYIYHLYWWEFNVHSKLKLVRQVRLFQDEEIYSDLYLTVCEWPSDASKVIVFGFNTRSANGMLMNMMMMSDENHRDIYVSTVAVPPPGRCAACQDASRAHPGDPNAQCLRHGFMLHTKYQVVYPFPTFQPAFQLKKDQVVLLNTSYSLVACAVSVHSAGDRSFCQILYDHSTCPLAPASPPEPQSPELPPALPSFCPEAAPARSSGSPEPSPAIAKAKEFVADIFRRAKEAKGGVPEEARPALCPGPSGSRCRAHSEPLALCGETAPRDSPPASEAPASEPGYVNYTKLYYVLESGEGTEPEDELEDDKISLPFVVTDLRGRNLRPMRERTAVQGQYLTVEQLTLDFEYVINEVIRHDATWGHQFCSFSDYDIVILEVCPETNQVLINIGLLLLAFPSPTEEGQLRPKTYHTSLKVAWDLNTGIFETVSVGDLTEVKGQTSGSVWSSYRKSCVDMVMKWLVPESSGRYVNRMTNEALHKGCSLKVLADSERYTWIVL
MEASUREMENT TYPE: Ki

>  <MOLECULE>
NS(=O)(=O)c1ccc(S(=O)(=O)Nc2cccc3c(Cl)c[nH]c23)cc1 [indisulam]

>  <RESULT>
> 50 µM

$$$$

---

- ASSAY SYSTEM: DDB1ΔB-DCAF15biotin and BodipyFL-RBM39RRM2 (Homo sapiens, UniProt Q14498+Q66K64)
- Construct: Full-length human DCAF15 was used in all TR-FRET assays; RBM39RRM2 (245-332), and RBM23RRM2 (263-341)
- Sequence (Q66K64 whole entry, stated change not applied): as above
- Sequence (Q14498 245-332, stated change not applied): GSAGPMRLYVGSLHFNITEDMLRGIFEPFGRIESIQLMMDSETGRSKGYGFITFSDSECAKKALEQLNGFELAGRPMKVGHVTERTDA
- ASSAY NOTES: TR-FRET RBM39RRM2 recruitment assay: titration of compound
- CONDITION INFO: BodipyFL-RBM39RRM2-WT 200 nM, DCAF15 200 nM; read-out: EC50 of DCAF15-RBM39RRM2 complex formation
pEC50: −log10 of the molar value.

>  <COMPOUND>
O=C(NS(=O)(=O)c1ccc(Br)s1)c1ccc(Cl)cc1Cl [tasisulam]

>  <ASSAY SYSTEM>
DDB1ΔB-DCAF15biotin and BodipyFL-RBM39RRM2 (Homo sapiens, UniProt Q14498+Q66K64)

>  <RELATION OPERATOR>
<

>  <pEC50>
5.00

$$$$
>  <COMPOUND>
NS(=O)(=O)c1ccc(S(=O)(=O)Nc2cccc3c(Cl)c[nH]c23)cc1 [indisulam]

>  <ASSAY SYSTEM>
DDB1ΔB-DCAF15biotin and BodipyFL-RBM39RRM2 (Homo sapiens, UniProt Q14498+Q66K64)

>  <RELATION OPERATOR>
=

>  <pEC50>
5.49

$$$$
